# Kd listing for each entry below
Molecular target: T1, soluble FGFR1c receptor protein (human, UniProt P11362 141-376)
T1 sequence: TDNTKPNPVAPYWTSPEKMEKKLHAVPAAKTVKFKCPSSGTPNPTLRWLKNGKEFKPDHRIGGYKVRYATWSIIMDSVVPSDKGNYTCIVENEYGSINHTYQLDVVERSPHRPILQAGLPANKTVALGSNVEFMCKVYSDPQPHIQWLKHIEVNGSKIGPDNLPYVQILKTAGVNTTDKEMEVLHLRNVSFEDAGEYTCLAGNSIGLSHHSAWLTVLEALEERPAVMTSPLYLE
Assay: BLI Octet RED96, antibody on anti-hIgG Fc tip
# output: bare number, implied unit nM

binder	uom	Kd
Vk1 combined with the VH of Ab15 (antibody, V domains shown, captured on anti-human IgG Fc tips) VH: EVQLLESGGGVVQPGRSLRLSCAASGFTFSSYAMHWVRQAPGKGLEWVAVISYDGSNKYYADSVKGRFTISRDNSKNTLSLQMNSLRVEDTAIYYCVRGAGRGYTYGPDGFDIWGQGTMVTVSS VL: DIVMTQTPLSLSVTPGQPASISCTSSRSLLHSDGKTYLYWYLQKPGQPPQLLIYELSNRFSGVPDRFSGSGSRTDFTLKISRVEAEDVGVYYCMQYIEAPLTFGGGTKVEIK	nM	4.7

Given the binder Vk9 combined with the VH of Ab15 (antibody, V domains shown, captured on anti-human IgG Fc tips) VH: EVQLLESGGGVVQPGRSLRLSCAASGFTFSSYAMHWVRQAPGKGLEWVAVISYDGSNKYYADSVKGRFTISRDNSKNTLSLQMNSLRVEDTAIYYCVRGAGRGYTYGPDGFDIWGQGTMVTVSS VL: DIVMTQSPDSLAVSLGERATINCKSSQSLLHSDGKTYVYWYQQKPGQPPKLLIYELSNRFSGVPDRFSGSGSGTDFTLTISSLQAEDVAVYYCMQYIEAPLTFGGGTKVEIK , what is its reported Kd? 2.39
